Test: Pharmacokinetic analysis of multiple doses of sepiapterin (once daily for 7 days, fed subjects)
Format: in vivo, human
Settings: human, plasma, 5 mg/kg, Day 7; sepiapterin 5 mg/kg once daily; fed
measure: Tmax
Enter the number, and then the unit.

### Prompt Assign Tmax to the following record: C[C@H](O)[C@H](O)[C@H]1CNc2nc(N)[nH]c(=O)c2N1 [BH4, Tetrahydrobiopterin]
### Response 4 h

----------
Test: Food effect on administration of sepiapterin: plasma sepiapterin and BH4 concentrations, fasted vs fed
Type: in vivo, human
Settings: human, plasma, oral, 10 mg/kg, fed (high-fat meal); sepiapterin 10 mg/kg oral; 0.5 h; read-out: Concentration in Plasma, Maximum
measure: concentration at 0.5 h (nM)
Give the value, in units of nM, as a plain number.

compound | concentration at 0.5 h / nM
C[C@H](O)C(=O)C1=Nc2c(nc(N)[nH]c2=O)NC1 [sepiapterin, Sepiapterin] | 3.22

Attention now turns to another entry.
### Prompt Assign concentration at 0.5 h to the following record: C[C@H](O)[C@H](O)[C@H]1CNc2nc(N)[nH]c(=O)c2N1 [BH4, Tetrahydrobiopterin]
### Response 76.4

Values compiled from patent US20220362249A1.
